Would you kindly list inhibition of cAMP production, 10 µM for each of these binders?
Assayed system: human glucagon receptor (human, UniProt P47871 26-477)
Assay details: cell-based or functional assay
Starred links: 1 amine or outer side, 2 acyl side, 3 side chain; linkers in the order of their positions; H or OH if unused. Non-standard residues stand in square brackets, D forms with d. No end group written: not given here. *: point of attachment. NMe2F‑APPA = N-methyl-2-amino-5-(2-fluorophenyl)pentanoic acid, CN([C@@H](CCCc1ccccc1F)C(=O)[*:2])[*:1]; 2CF3,4F‑APPA = 2-amino-5-(4-fluoro-2-(trifluoromethyl)phenyl)pentanoic acid; Bip(2'-Et-4'-OMe) = CCc1cc(OC)ccc1-c1ccc(C[C@H](N)C(=O)O)cc1; 2F‑APPA = 2-amino-5-(2-fluorophenyl)pentanoic acid; αMePhe(2-F) = C[C@](N)(Cc1ccccc1F)C(=O)O; hhPhe = N[C@@H](CCCc1ccccc1)C(=O)O; aThr = C[C@H](O)[C@H](N)C(=O)O; CNB = not defined here; Ac3c = NC1(C(=O)O)CC1; Aib = CC(C)(N)C(=O)O; Moc = COC(=O)*
The response must be a number in pmol/ml/µg prt with no trailing unit.

Which measured inhibition of cAMP production, 10 µM value corresponds to H[Aib][CNB]G[aThr][αMePhe(2-F)][aThr]SD[Bip(2'-Et-4'-OMe)][NMe2F‑APPA] (reading uncertain) [Seq. ID. No. 132: H-Aib-(CNB)-G-T(allo)-(α-Me-2F-Phe)-T(allo)-SD-Bip(OMe)-((NMe)(2F-APPA))] ?
2

# inhibition of cAMP production, 10 µM lookup, item Ac-H[Aib]QG[aThr][αMePhe(2-F)][aThr]SD[Bip(2'-Et-4'-OMe)][2F‑APPA] (also: reduced (CH2) bonds between 9-10 and 10-11) [Seq. ID. No. 199: CH3CO-H-Aib-QG-T(allo)-(α-Me-2F-Phe)-T(allo)-SD-(CH2)-Bip(OMe)-(CH2)-(2F-APPA)]
0

Please look up its inhibition of cAMP production, 10 µM: H[Aib]QG[aThr][αMePhe(2-F)][aThr]SD[Bip(2'-Et-4'-OMe)][2F‑APPA] (also: reduced (CH2) bond between 10 and 11) [Seq. ID. No. 191: H-Aib-QG-T(allo)-(α-Me-2F-Phe)-T(allo)-SD-Bip(OMe)-(CH2)-(2F-APPA)]
0

Name the reported inhibition of cAMP production, 10 µM value associated with the binder Ac-H[Aib]QGT[αMePhe(2-F)]TSD[Bip(2'-Et-4'-OMe)][2F‑APPA] (also: reduced (CH2) bonds between 9-10 and 10-11) [Seq. ID. No. 195: CH3CO-H-Aib-QGT-(α-Me-2F-Phe)-TSD-(CH2)-Bip(OMe)-(CH2)-(2F-APPA)]
2

# input binder: H[Aib][CNB]G[aThr][αMePhe(2-F)][aThr]SD[Bip(2'-Et-4'-OMe)][2F‑APPA] (reading uncertain) [Seq. ID. No. 116: H-Aib-(CNB)-G-T(allo)-(α-Me-2F-Phe)-T(allo)-SD-Bip(OMe)-(2F-APPA)] ; wanted: its inhibition of cAMP production, 10 µM
0

Need inhibition of cAMP production, 10 µM of Moc-H[Aib][CNB]GT[αMePhe(2-F)]TSD[Bip(2'-Et-4'-OMe)][hhPhe] (reading uncertain) [Seq. ID. No. 206: CH3OCO-H-Aib-(CNB)-GT-(α-Me-2F-Phe)-TSD-Bip(OMe)-(APPA)] , thanks.
0

Form field: reported inhibition of cAMP production, 10 µM of H[Ac3c]QGTFTSD[Bip(2'-Et-4'-OMe)][2CF3,4F‑APPA] [Seq. ID. No. 72: H-(ACP)-QGTFTSD-Bip(OMe)-(2CF3,4F-APPA)]
0

Quick one: inhibition of cAMP production, 10 µM of Ac-H[Aib]QG[aThr][αMePhe(2-F)][aThr]SD[Bip(2'-Et-4'-OMe)][hhPhe] (also: reduced (CH2) bonds between 9-10 and 10-11) [Seq. ID. No. 197: CH3CO-H-Aib-QG-T(allo)-(α-Me-2F-Phe)-T(allo)-SD-(CH2)-Bip(OMe)-(CH2)-(APPA)] ?
0

# get_value(readout='inhibition of cAMP production, 10 µM', item= Ac-H[Aib][CNB]GT[αMePhe(2-F)]TSD[Bip(2'-Et-4'-OMe)][2F‑APPA] (reading uncertain) [Seq. ID. No. 207: CH3CO-H-Aib-(CNB)-GT-(α-Me-2F-Phe)-TSD-Bip(OMe)-(2F-APPA)] )
0

Data credit: patent US20120021972A1
